Target: CpomPBP2 (Cydia pomonella, UniProt I3ZNT9)
Sequence (I3ZNT9 26-169 limits assumed): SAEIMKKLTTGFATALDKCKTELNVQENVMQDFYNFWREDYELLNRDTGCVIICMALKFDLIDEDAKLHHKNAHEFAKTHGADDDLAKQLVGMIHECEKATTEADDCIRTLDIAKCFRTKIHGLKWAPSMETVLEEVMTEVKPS
measured-parameter: Kd

Q: State measured Kd of the compound "CCC=CCC=CCC=CCCCCCCCCCC(=O)OC" with CpomPBP2 (Cydia pomonella, UniProt I3ZNT9).
Ans: 8.62 µM

---

Target: CpomPBP1
Assay: Competitive binding assay with 1-NPN fluorescence probe
Set-up: species or system Cydia pomonella
Settings: wild type CpomPBP1; 2 μM protein, 2 μM 1-NPN, 50 mM Tris-HCl pH 7.0; read-out: dissociation constant (Kd)
measured-parameter: pKd
Quick note: pKd means taking -log10 of the concentration in moles per liter.

CCCCC/C=C\C/C=C\C/C=C\CCCCCCC(=O)O [Z-8,11,14-Eicosatrienoic acid] = 4.89
CCC=CCC=CCC=CCC=CC=CC(O)CCCC(=O)O (racemic) [(±)5-HEPE] = 5.08
CCC=CCC=CCC=CCCCCCCCCCC(=O)OC [ETrME] = 5.50

Q: Input C/C=C/C=C/CCCCCCCO [Codlemone, reference compound] , output reported pKd.
Ans: 5.42
